Target: Sodium-dependent dopamine transporter (Homo sapiens)
Sequence (Q01959 whole entry): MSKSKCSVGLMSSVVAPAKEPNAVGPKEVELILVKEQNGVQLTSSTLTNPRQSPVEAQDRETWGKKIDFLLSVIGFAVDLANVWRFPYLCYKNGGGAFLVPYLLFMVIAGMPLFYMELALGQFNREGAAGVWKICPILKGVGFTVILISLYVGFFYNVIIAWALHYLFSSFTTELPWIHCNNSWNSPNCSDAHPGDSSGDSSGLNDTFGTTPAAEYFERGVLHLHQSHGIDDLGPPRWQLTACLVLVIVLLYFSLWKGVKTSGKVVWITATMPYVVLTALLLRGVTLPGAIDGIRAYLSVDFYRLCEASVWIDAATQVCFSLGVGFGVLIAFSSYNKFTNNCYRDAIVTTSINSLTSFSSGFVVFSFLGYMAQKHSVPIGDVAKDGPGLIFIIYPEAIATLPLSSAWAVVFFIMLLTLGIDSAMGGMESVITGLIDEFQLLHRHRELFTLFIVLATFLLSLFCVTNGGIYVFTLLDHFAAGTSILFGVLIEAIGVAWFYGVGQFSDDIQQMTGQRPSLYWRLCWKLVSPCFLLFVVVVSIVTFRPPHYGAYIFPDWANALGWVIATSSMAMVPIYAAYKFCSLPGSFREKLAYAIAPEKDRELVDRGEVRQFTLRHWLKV
Experiment: GPCRScan assay: inhibition of DAT
Parameters: radioligand conc. used [nm] 3.6 – 16.0, parental cells stable HEK
Details: read-out: Ki
value.kind: Ki (µM)
Note: unit µM is implicit; provide only the numeric part.

For record `CCOCCn1cc(C(=O)Nc2ccc(-n3nc(-c4cccnc4)cc3C(F)(F)F)cn2)ccc1=O` the listed Ki is 4.48

----------
Target: Amine oxidase [flavin-containing] A (MAO-A) (Homo sapiens, UniProt P21397)
Sequence (P21397 whole entry): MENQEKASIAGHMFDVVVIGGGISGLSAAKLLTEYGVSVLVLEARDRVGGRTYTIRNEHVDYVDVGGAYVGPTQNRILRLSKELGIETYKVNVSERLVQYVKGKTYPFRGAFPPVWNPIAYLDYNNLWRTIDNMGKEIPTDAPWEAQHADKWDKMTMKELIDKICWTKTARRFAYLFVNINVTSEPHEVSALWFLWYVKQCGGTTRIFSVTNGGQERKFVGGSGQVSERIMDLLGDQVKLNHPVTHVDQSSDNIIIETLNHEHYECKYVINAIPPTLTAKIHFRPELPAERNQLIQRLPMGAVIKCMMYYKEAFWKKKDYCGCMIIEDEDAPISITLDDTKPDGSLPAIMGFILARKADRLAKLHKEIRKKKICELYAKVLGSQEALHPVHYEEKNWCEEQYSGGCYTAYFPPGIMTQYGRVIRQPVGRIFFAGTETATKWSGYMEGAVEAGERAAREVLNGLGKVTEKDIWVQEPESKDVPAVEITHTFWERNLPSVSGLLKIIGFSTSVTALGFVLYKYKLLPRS
Assay: MAOA Eurofins-Panlabs selectivity data (BI)
Parameters: mode of action inhibitor
Conditions: compound concentration 10 uM, read-out: % Ctrl
value.kind: activity at 10 µM
I'd appreciate it if you wrote the number followed by its unit.

For this compound ( `CCOCCn1cc(C(=O)Nc2ccc(-n3nc(-c4cccnc4)cc3C(F)(F)F)cn2)ccc1=O` ), measured activity at 10 µM is 27%
